Literature IC50 values, system: UniProtKB P10275.

>>> endpoint_value("COc1cccc2c1-c1ccc(NS(C)(=O)=O)cc1C(c1ccc(F)cc1)O2 (centres undefined)")
"> 10 µM"
>>> endpoint_value("C=CCC[C@H](O)[C@H]1CCCC2=Cc3c(cnn3-c3ccc(F)cc3)C[C@@]21C")
"> 5 µM"
>>> endpoint_value("CC#C[C@]1(O)C[C@H]2CCc3cc(O)ccc3[C@]2(CC)[C@H](O)C1")
"> 10 µM"
>>> endpoint_value("C[C@]12Cc3cnn(-c4ccc(F)cc4)c3C=C1CCC[C@@H]2[C@@H](O)c1ccc(F)cc1")
"> 5 µM"

Look up IC50 for the entries below, preserving their order.
1. Cc1cc(F)ccc1-n1nc(C(F)(F)F)cc1-c1ccc2c(c1)NC(=O)CO2
2. N#Cc1cc(F)cc(-c2ccc3c(c2)C(c2ccco2)(c2ccco2)OCC(=O)N3)c1
3. CC(C)(C)c1ccc(S(=O)(=O)Nc2ccc(-c3ccc4c(cnn4-c4ccc(F)cc4)c3)c(C(F)(F)F)c2)cc1
4. CC(C)NS(=O)(=O)c1ccc(-c2ccc3c(cnn3-c3ccc(F)cc3)c2)c(C(F)(F)F)c1

["> 10 µM", "> 3 µM", "> 10 µM", "> 10 µM"]

Please list IC50 recorded for the compound CCOc1ccccc1-c1ccc2c(cnn2-c2ccc(F)cc2)c1 > 10 µM

---

Literature pIC50 values, system: Androgen receptor (Homo sapiens, UniProt P10275).
# Tested target: Androgen receptor (Homo sapiens, UniProt P10275)
# Sequence (P10275 whole entry): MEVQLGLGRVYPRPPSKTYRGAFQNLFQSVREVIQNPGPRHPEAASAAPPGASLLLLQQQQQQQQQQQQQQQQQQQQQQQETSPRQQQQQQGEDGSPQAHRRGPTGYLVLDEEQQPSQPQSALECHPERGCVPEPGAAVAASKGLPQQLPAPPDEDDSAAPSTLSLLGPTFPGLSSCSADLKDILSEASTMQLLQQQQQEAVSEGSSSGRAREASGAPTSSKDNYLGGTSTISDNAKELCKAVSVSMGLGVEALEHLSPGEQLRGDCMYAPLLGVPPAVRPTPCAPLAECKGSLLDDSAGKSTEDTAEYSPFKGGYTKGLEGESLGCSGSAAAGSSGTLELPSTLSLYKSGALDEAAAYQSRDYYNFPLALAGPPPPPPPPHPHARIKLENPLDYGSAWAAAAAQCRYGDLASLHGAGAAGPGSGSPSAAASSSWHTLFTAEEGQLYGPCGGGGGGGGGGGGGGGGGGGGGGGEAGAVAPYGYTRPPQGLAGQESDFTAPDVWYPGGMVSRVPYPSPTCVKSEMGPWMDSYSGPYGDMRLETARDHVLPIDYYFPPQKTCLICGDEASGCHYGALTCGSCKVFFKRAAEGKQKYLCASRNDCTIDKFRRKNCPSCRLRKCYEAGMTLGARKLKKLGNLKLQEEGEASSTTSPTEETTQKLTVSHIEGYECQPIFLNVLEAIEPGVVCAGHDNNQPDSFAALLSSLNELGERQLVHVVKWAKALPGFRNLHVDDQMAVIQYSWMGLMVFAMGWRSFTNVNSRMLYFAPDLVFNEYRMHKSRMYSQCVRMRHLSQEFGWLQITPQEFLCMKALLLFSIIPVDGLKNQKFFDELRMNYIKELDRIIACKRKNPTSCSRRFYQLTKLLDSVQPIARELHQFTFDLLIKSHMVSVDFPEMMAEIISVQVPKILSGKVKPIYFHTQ
pIC50: −log10 of the molar value.

>>> endpoint_value("CN1CCN(c2ccc(C(=O)N3CCC4(C3)CN(c3ccc(C#N)c(Cl)c3)C4)cc2)CC1")
5.00
>>> endpoint_value("CCCn1nc(C)c(-c2ccc3c(c2)NC(=O)CO3)c1-c1ccc(F)cc1")
"< 5.00"
>>> endpoint_value("Fc1ccc(-c2c3cccc(C(F)(F)F)c3nn2Cc2ccc(F)cc2Cl)cc1")
5.64

Look up pIC50 for the entries below, preserving their order.
1. CSc1ccc(NC(=O)N2C[C@H](C)N(c3ccc(C#N)c(C(F)(F)F)c3)C[C@H]2C)cn1 (racemic)
2. COc1cccc2c1-c1ccc(NS(C)(=O)=O)cc1C(c1cccc(C)c1)O2 (configuration not stated)
3. CC#C[C@]1(O)C[C@H]2CCc3cc(O)ccc3[C@]2(CC)C[C@@H]1O
4. Cc1cccc(-c2ccc3c(cnn3-c3ccc(F)cc3)c2)c1

1. 6.66
2. < 5.00
3. < 5.00
4. < 5.00

Look up pIC50 for the entries below, preserving their order.
1. O=C1COc2ccc(C3=Nn4cnnc4SC3c3cccc(F)c3)cc2N1 (configuration not stated)
2. C[C@]12Cn3cnc(-c4ccc(F)cc4)c3C=C1CCC[C@@H]2[C@](C)(O)c1ccc(F)cc1
3. Cc1c(C#N)c(Cl)nc2c3c(sc12)NC(=O)CC3c1ccccc1Cl (configuration not stated)

5.33
< 5.40
5.70

---

Literature IC50 values, system: Androgen receptor (Homo sapiens, UniProt P10275).

>>> endpoint_value("CC1(O)CCCc2c1[nH]c1cc(Cl)c(Cl)cc21 (configuration not stated)")
"> 10 µM"
>>> endpoint_value("CC1=CC(C)(C)Nc2ccc3c(c21)/C(=C/c1ccccc1)Oc1ccc(F)cc1-3")
"0.64 µM"
>>> endpoint_value("Cc1ccsc1[C@@](C)(O)[C@H]1CCCC2=Cc3c(-c4ccc(F)cc4)ncn3C[C@@]21C")
"> 4 µM"
>>> endpoint_value("O=C1[C@@H]2C3CCC(C3)[C@@H]2C(=O)N1c1ccc2ccccc2c1")
"1.2 µM"
>>> endpoint_value("CCCC[C@@](C)(O)[C@H]1CCCC2=Cc3c(-c4ccc(F)cc4)ncn3C[C@@]21C")
"> 4 µM"

Look up IC50 for the entries below, preserving their order.
1. CC1=CC(C)(C)Nc2ccc3c(c21)C(c1ccc(C)c(F)c1)Oc1ccccc1-3 (configuration not stated)
2. C[C@]12Cc3cnn(-c4ccc(F)cc4)c3C=C1CCC[C@@H]2[C@@H](O)c1ccccc1
3. COc1cccc2c1-c1ccc(NS(C)(=O)=O)cc1C(c1cccc(F)c1)O2 (configuration not stated)
4. CCOc1cccc(-c2ccc3c(cnn3-c3ccc(F)cc3)c2)c1

1: 1.22 µM; 2: > 5 µM; 3: > 10 µM; 4: > 10 µM

Look up IC50 for the entries below, preserving their order.
1. CC(C)c1cc(C(C)C)c(S(=O)(=O)Nc2ccc(-c3ccc4c(cnn4-c4ccc(F)cc4)c3)c(C(F)(F)F)c2)c(C(C)C)c1
2. CCCS(=O)(=O)Nc1ccc(-c2ccc3c(cnn3-c3ccc(F)cc3)c2)c(C(F)(F)F)c1
3. CC#C[C@]1(O)C[C@H]2CCc3cc(OCc4cccnc4C)ccc3[C@]2(CC)C[C@@H]1O

1: > 10 µM; 2: 3.16 µM; 3: > 10 µM

---

# Tested target: Androgen receptor (Homo sapiens, UniProt P10275)
# Sequence (P10275 whole entry): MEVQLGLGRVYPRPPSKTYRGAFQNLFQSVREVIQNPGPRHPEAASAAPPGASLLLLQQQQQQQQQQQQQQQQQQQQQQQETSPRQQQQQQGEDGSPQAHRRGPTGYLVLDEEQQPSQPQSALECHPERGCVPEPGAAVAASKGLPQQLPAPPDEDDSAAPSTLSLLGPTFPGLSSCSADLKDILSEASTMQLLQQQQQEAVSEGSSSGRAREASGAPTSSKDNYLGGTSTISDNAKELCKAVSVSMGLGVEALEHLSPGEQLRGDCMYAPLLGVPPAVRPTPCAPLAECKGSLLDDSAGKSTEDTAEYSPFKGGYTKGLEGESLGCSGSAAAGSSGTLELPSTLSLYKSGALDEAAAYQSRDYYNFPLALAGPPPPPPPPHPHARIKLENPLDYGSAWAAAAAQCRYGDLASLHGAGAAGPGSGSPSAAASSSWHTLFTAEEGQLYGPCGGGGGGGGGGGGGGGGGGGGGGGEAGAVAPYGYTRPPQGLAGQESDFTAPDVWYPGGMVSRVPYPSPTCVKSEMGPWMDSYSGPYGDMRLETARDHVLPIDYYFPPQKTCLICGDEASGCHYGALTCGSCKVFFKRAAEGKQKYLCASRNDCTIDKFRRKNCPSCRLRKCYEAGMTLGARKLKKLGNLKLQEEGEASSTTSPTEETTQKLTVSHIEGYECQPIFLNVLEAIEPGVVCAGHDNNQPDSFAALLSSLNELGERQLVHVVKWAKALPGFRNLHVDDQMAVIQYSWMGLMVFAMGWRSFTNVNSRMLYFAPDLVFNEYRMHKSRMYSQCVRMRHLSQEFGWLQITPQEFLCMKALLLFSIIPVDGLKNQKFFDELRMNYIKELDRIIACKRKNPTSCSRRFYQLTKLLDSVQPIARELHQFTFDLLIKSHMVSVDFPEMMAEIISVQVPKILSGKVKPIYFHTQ
Literature pIC50 values, system: Androgen receptor (Homo sapiens, UniProt P10275).
One number for each entry, as −log10 of the molar value.

Completed entries (count: 3):
>>> endpoint_value("N#Cc1ccc(C2=NOC3CCCCCCC23)c(C(F)(F)F)c1 (cis isomer)")
6.19
>>> endpoint_value("Cc1cc(F)ccc1-n1nc(C(F)(F)F)cc1-c1cc(Cl)c2c(c1)NC(=O)CO2")
5.35
>>> endpoint_value("O=c1[nH]nc(Cc2c(Cl)cccc2Cl)c2ccccc12")
4.96

Look up pIC50 for the entries below, preserving their order.
1. CC1(C)OC(=O)Nc2ccc(-c3cc(F)cc(C#N)c3)cc21
2. CC1=CC(C)(C)Nc2ccc3c(c21)C(c1ccc(Cl)c(Cl)c1)Oc1ccccc1-3 (configuration not stated)
3. CN1CCN(c2ccc(C(=O)N3CCC4(CCN(c5ccc(C#N)c(Cl)c5)C4)C3)cc2)CC1 (configuration not stated)
4. CC1(O)CCCc2c1[nH]c1ccc(C#N)cc21 (configuration not stated)

[5.89, 6.02, 5.16, 5.04]
